Provide the recorded cAMP EC50 for the entries that follow.
target: human glucagon receptor (human) (UniProt P47871); experiment: cell-based or functional assay
Sequence (P47871 26-477): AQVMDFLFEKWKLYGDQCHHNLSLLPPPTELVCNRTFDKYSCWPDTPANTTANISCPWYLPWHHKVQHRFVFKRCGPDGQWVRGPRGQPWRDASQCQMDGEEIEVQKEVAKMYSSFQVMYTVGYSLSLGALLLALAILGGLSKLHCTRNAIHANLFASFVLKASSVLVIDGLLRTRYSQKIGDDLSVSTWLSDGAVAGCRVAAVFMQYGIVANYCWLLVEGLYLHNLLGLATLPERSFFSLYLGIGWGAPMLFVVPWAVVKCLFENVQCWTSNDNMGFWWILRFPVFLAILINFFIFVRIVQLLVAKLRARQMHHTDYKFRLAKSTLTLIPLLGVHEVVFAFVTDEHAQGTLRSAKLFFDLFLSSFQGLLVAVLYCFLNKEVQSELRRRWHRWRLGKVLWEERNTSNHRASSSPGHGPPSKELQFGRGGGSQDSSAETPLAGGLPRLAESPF

Answered examples (8):
* IP386 (Fc fusion) YSEGTFISDYSIAMDKIHQQDFVNWLLAQKGGGGGSGGGGSGGGGSGGGGSACPPC | 540 nM
* IP332 (Fc fusion) YSEGTFTSDYSIALAAAAQQDFVNWLLAGGGGGGGSGGGGSGGGGSGGGGSGGGGSGGGGSA | > 1250 nM
* IP347 (Fc fusion) YSEGTFTSDYSKLLERQAIDEFIAILLKGGGGGGGSGGGGSGGGGSGGGGSGGGGSGGGGSA | > 1490 nM
* IP344 (Fc fusion) YSEGTFISDYSIAMDKIHQQDFVNWLLAQKGGGGGSGGGGSGGGGSGGGGSGGGGSA | 200 nM
* IP352 (Fc fusion) YSEGTFTSDYSKLLERQAIDEFIAMLLKGEGGGGGSGGGGSGGGGSGGGGSGGGGSGGGGSA | 620 nM
* IP408 (Fc fusion) YSEGTHTSDLRILLERQAIDEFIAKLLKGGGSGGGGSGGGGSGGGGSGGGGSGGGGSGGGGSGGGGSACPPC | > 166 nM
* IP412 (Fc fusion) YSEGTFTSDYSKLLEEEANRLFIEWLLAGGGGGGSGGGGSGGGGSGGGGSATHTCPPC | > 440 nM
* IP367 (Fc fusion) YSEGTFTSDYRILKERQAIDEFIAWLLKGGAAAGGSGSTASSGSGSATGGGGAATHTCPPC | > 1300 nM

Parameters: items (list). Returns: cAMP EC50 for each item.
1. IP247 (Fc fusion) YSEGTFTSDYSKLLEKIHQQLFIEWLVKGPAAAGGSGSTASSGSGSATGGGGAATHTCPPCPAPEF
2. IP349 (Fc fusion) YSEGTFTSDYSKLLERQAIDEFIANLLKGGGGGGGSGGGGSGGGGSGGGGSGGGGSGGGGSA
3. IP348 (Fc fusion) YSEGTFTSDYSKLLERQAIDEFIASLLKGGGGGGGSGGGGSGGGGSGGGGSGGGGSGGGGSA

1: > 420 nM; 2: 1200 nM; 3: > 907 nM

Entry IP018 (Fc fusion) YSEGTFISDYSIAMDKIHQQDFVNWLLAQKAAAGGSGSTASSGSGSATGGGGAATHTCPPCPAPEF : reported cAMP EC50 = ?
> 317 nM
